- Test system: NCI-H1355
- measurement_notes: relative viability (nuclei count vs DMSO), 5 days (fraction); higher = more cells survive
- test_settings: first compound 0.001 µM
assay_endpoint: relative viability
Numbers only.

Here's what some known entries look like.
{"compound": "Cc1cn(-c2cc(NC(=O)c3ccc(C)c(Nc4nccc(-c5cccnc5)n4)c3)cc(C(F)(F)F)c2)cn1 [Nilotinib] + Cc1nc(NC(=O)N2CCC[C@H]2C(N)=O)sc1-c1ccnc(C(C)(C)C(F)(F)F)c1 [Alpelisib] (partner 2 µM)", "experimental_system": "NCI-H1355", "relative viability": 0.764}
{"compound": "Cc1cn(-c2cc(NC(=O)c3ccc(C)c(Nc4nccc(-c5cccnc5)n4)c3)cc(C(F)(F)F)c2)cn1 [Nilotinib] + CC(C)C[C@H](NC(=O)[C@H](Cc1ccccc1)NC(=O)c1cnccn1)B(O)O [Bortezomib] (partner 0.002 µM)", "experimental_system": "NCI-H1355", "relative viability": 1.09}
{"compound": "Cc1cn(-c2cc(NC(=O)c3ccc(C)c(Nc4nccc(-c5cccnc5)n4)c3)cc(C(F)(F)F)c2)cn1 [Nilotinib] + CC(=O)Nc1cccc(-n2c(=O)n(C3CC3)c(=O)c3c(Nc4ccc(I)cc4F)n(C)c(=O)c(C)c32)c1 [Trametinib] (partner 0.02 µM)", "experimental_system": "NCI-H1355", "relative viability": 0.378}

List the reported relative viability of each compound below.
1. Cc1cn(-c2cc(NC(=O)c3ccc(C)c(Nc4nccc(-c5cccnc5)n4)c3)cc(C(F)(F)F)c2)cn1 [Nilotinib] + COc1cccc2cc(-c3nc([C@H]4CC[C@H](C(=O)O)CC4)n4ncnc(N)c34)[nH]c12 [OSI-027] (partner 0.5 µM)
2. Cc1cn(-c2cc(NC(=O)c3ccc(C)c(Nc4nccc(-c5cccnc5)n4)c3)cc(C(F)(F)F)c2)cn1 [Nilotinib] + NC(=O)Nc1cc(-c2cccc(F)c2)sc1C(=O)N[C@H]1CCCNC1 [AZD7762] (partner 0.2 µM)
3. Cc1cn(-c2cc(NC(=O)c3ccc(C)c(Nc4nccc(-c5cccnc5)n4)c3)cc(C(F)(F)F)c2)cn1 [Nilotinib] + C[C@@H](Oc1cc(-c2cnn(C3CCNCC3)c2)cnc1N)c1c(Cl)ccc(F)c1Cl [Crizotinib] (partner 1 µM)
4. Cc1cn(-c2cc(NC(=O)c3ccc(C)c(Nc4nccc(-c5cccnc5)n4)c3)cc(C(F)(F)F)c2)cn1 [Nilotinib] + Nc1ncn([C@H]2C[C@H](O)[C@@H](CO)O2)c(=O)n1 [Decitabine] (partner 2 µM)

0.384
0.718
1.05
0.355

Supply relative viability value. Item: Cc1cn(-c2cc(NC(=O)c3ccc(C)c(Nc4nccc(-c5cccnc5)n4)c3)cc(C(F)(F)F)c2)cn1 [Nilotinib] + CS(=O)(=O)CCNCc1ccc(-c2ccc3ncnc(Nc4ccc(OCc5cccc(F)c5)c(Cl)c4)c3c2)o1 [Lapatinib] (partner 2 µM)
1.07

====

- Tested on: COR-L 105
- measurement_notes: relative viability (nuclei count vs DMSO), 5 days (fraction); higher = more cells survive
- test_settings: first compound 0.01 µM
Field 'label' (enum: YES / NO). Set to YES when relative viability is strictly under 1; else NO.

See these solved cases before continuing.
{"compound": "Cc1cn(-c2cc(NC(=O)c3ccc(C)c(Nc4nccc(-c5cccnc5)n4)c3)cc(C(F)(F)F)c2)cn1 [Nilotinib] + CC1(C)CCC(c2ccc(Cl)cc2)=C(CN2CCN(c3ccc(C(=O)NS(=O)(=O)c4ccc(N[C@H](CCN5CCOCC5)CSc5ccccc5)c(S(=O)(=O)C(F)(F)F)c4)cc3)CC2)C1 [Navitoclax] (partner 0.5 µM)", "assigned_class": "YES"}
{"compound": "Cc1cn(-c2cc(NC(=O)c3ccc(C)c(Nc4nccc(-c5cccnc5)n4)c3)cc(C(F)(F)F)c2)cn1 [Nilotinib] + O=C(CCCCCCC(=O)Nc1ccccc1)NO [Vorinostat] (partner 1 µM)", "assigned_class": "YES"}
{"compound": "Cc1cn(-c2cc(NC(=O)c3ccc(C)c(Nc4nccc(-c5cccnc5)n4)c3)cc(C(F)(F)F)c2)cn1 [Nilotinib] + COc1cccc2cc(-c3nc([C@H]4CC[C@H](C(=O)O)CC4)n4ncnc(N)c34)[nH]c12 [OSI-027] (partner 0.5 µM)", "assigned_class": "YES"}

Please look at the following compound next.
Dear reviewer, please state whether Cc1cn(-c2cc(NC(=O)c3ccc(C)c(Nc4nccc(-c5cccnc5)n4)c3)cc(C(F)(F)F)c2)cn1 [Nilotinib] + COc1cc2c(Oc3ccc(NC(=O)C4(C(=O)Nc5ccc(F)cc5)CC4)cc3F)ccnc2cc1OCCCN1CCOCC1 [Foretinib] (partner 0.25 µM) has relative viability strictly beneath 1.
NO

====

- Test system: NCI-H2228
- measurement_notes: relative viability (nuclei count vs DMSO), 5 days (fraction); higher = more cells survive
- test_settings: first compound 0.006325 µM
assay_endpoint: relative viability
One number for each entry.

{"molecule": "CCNC(=O)c1noc(-c2cc(C(C)C)c(O)cc2O)c1-c1ccc(CN2CCOCC2)cc1 [Luminespib] + Cc1nc(Nc2ncc(C(=O)Nc3c(C)cccc3Cl)s2)cc(N2CCN(CCO)CC2)n1 [Dasatinib] (partner 0.075 µM)", "assay_endpoint": "relative viability", "recorded_number": 0.387}
{"molecule": "CCNC(=O)c1noc(-c2cc(C(C)C)c(O)cc2O)c1-c1ccc(CN2CCOCC2)cc1 [Luminespib] + CC(=O)Nc1cccc(-n2c(=O)n(C3CC3)c(=O)c3c(Nc4ccc(I)cc4F)n(C)c(=O)c(C)c32)c1 [Trametinib] (partner 0.02 µM)", "assay_endpoint": "relative viability", "recorded_number": 0.336}
{"molecule": "CCNC(=O)c1noc(-c2cc(C(C)C)c(O)cc2O)c1-c1ccc(CN2CCOCC2)cc1 [Luminespib] + COc1cccc2cc(-c3nc([C@H]4CC[C@H](C(=O)O)CC4)n4ncnc(N)c34)[nH]c12 [OSI-027] (partner 0.5 µM)", "assay_endpoint": "relative viability", "recorded_number": 0.459}

Proceed to the following item.
Supply relative viability value. Item: CCNC(=O)c1noc(-c2cc(C(C)C)c(O)cc2O)c1-c1ccc(CN2CCOCC2)cc1 [Luminespib] + CS(=O)(=O)N1CCN(Cc2cc3nc(-c4cccc5[nH]ncc45)nc(N4CCOCC4)c3s2)CC1 [Pictilisib] (partner 1 µM)
0.373

====

- System: NCI-H596
- measurement_notes: relative viability (nuclei count vs DMSO), 5 days (fraction); higher = more cells survive
- test_settings: first compound 0.02 µM
assay_endpoint: relative viability
Answers are plain numbers.

List the reported relative viability of each molecule below.
1. CN1CCN(CCOc2cc(OC3CCOCC3)c3c(Nc4c(Cl)ccc5c4OCO5)ncnc3c2)CC1 [Saracatinib] + N=C(N)NC(=N)NCCc1ccccc1 [Phenformin] (partner 250 µM)
2. CN1CCN(CCOc2cc(OC3CCOCC3)c3c(Nc4c(Cl)ccc5c4OCO5)ncnc3c2)CC1 [Saracatinib] + Nc1nc2[nH]cc(CCc3ccc(C(=O)N[C@@H](CCC(=O)O)C(=O)O)cc3)c2c(=O)[nH]1 [Pemetrexed] (partner 0.2 µM)

[0.845, 0.522]

====

- Tested on: HOP-62
- measurement_notes: relative viability (nuclei count vs DMSO), 5 days (fraction); higher = more cells survive
- test_settings: first compound 0.8 µM
Field 'label' (enum: Condition met / Condition not met). Set to Condition met when relative viability is strictly under 0.6; else Condition not met.

See these solved cases before continuing.
{"compound": "Nc1cccc2c1CN(C1CCC(=O)NC1=O)C2=O (stereo not given) [Lenalidomide] + Nc1nc2[nH]cc(CCc3ccc(C(=O)N[C@@H](CCC(=O)O)C(=O)O)cc3)c2c(=O)[nH]1 [Pemetrexed] (partner 0.2 µM)", "assigned_class": "Condition met"}
{"compound": "Nc1cccc2c1CN(C1CCC(=O)NC1=O)C2=O (stereo not given) [Lenalidomide] + Cc1cc(Nc2cc(N3CCN(C)CC3)nc(Sc3ccc(NC(=O)C4CC4)cc3)n2)n[nH]1 [Tozasertib] (partner 0.1 µM)", "assigned_class": "Condition met"}
{"compound": "Nc1cccc2c1CN(C1CCC(=O)NC1=O)C2=O (stereo not given) [Lenalidomide] + O=C(CCCCCCC(=O)Nc1ccccc1)NO [Vorinostat] (partner 1 µM)", "assigned_class": "Condition met"}
{"compound": "Nc1cccc2c1CN(C1CCC(=O)NC1=O)C2=O (stereo not given) [Lenalidomide] + Cc1nc(NC(=O)N2CCC[C@H]2C(N)=O)sc1-c1ccnc(C(C)(C)C(F)(F)F)c1 [Alpelisib] (partner 2 µM)", "assigned_class": "Condition not met"}

Please look at the following compound next.
Dear reviewer, please state whether Nc1cccc2c1CN(C1CCC(=O)NC1=O)C2=O (stereo not given) [Lenalidomide] + NC(=O)Nc1cc(-c2cccc(F)c2)sc1C(=O)N[C@H]1CCCNC1 [AZD7762] (partner 0.2 µM) has relative viability strictly beneath 0.6.
Condition not met
